Measured EC50 by item
# Test System: Cannabinoid receptor 1 (Homo sapiens, UniProt P21554)
# Sequence (P21554 whole entry): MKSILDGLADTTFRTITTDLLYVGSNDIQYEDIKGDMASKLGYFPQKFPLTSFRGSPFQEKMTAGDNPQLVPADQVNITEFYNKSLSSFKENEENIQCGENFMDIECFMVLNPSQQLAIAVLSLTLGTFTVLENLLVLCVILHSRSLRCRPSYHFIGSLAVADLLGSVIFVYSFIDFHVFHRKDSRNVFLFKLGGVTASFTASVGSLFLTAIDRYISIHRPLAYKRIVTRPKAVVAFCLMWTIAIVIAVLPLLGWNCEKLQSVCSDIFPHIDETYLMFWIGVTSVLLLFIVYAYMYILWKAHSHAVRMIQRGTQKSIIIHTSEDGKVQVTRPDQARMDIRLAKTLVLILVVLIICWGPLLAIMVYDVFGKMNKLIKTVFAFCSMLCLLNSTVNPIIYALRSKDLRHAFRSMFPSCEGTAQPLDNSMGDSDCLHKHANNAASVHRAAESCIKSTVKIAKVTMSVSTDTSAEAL
# Test Name: cAMP Assay: The following mixtures and buffer solutions were prepared: (a) Buffer 1: HBSS (Mediatech Cat#21-023-CV) with 5 mM HEPES (1 mM stock, Gibco BRL Cat#15630-056) and 0.1% BSA (7.5% stock, Invitrogen Cat#15260-037); (b) Buffer 2: 0.5 mM IBMX (200 mM stock in DMSO, Sigma 15879) in Buffer 1; (c) 1 uM cAMP Standard (50 uM stock, Perkin Elmer Cat# AD0262) diluted in Buffer 2 and serially diluted in Buffer 2, 12 doses at 1/2 dilutions resulting in a dose range of 1 uM to 0.5 nM; (d) d2 labelled cAMP (CisBio HTRF Detection Kit Cat #62AM4PEB reconstituted with 6 ml dH2O) diluted 1/20 with lysis buffer (CisBio HTRF Detection Kit Cat #62AM4PEB); (e) anti-cAMP (CisBio HTRF Detection Kit Cat #62AM4PEB reconstituted with 5 ml dH2O) diluted 1/20 with lysis buffer (CisBio HTRF Detection Kit Cat #62AM4PEB); and (f) Forskolin (Sigma Cat# F6886, 10 mM in DMSO) diluted first in DMSO to 1 mM and then to 1.5 uM in Buffer 2.
# Type: functional
Write the number in nM without appending the unit.

>>> number("O=c1cc(/C=C/c2ccc(C(F)(F)F)cc2)c2cc(C(c3ccc(Cl)cc3)c3nccs3)ccc2[nH]1 (centres undefined)")
397

Then this compound:
Returns the measured EC50 for the input compound. Input: "O=c1cc(Nc2ccc(F)c(Cl)c2)c2cc(C(c3ccc(Cl)cc3)c3ccc(Cl)cc3)ccc2[nH]1"
10

###

# Test System: Cannabinoid receptor 2 (Homo sapiens, UniProt P34972)
# Sequence (P34972 whole entry): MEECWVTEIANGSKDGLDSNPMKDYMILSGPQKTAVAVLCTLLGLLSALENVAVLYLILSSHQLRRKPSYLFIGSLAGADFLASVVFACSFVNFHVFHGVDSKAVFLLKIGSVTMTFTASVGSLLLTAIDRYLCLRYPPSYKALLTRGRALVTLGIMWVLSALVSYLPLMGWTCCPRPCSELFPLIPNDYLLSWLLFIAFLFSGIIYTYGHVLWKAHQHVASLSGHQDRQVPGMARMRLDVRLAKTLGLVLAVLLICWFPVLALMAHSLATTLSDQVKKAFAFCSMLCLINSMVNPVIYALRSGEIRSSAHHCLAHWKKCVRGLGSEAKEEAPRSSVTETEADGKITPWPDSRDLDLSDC
# Test Name: Membranes were prepared as described in FELDER, C. C., et al., Molecular Pharmacology, 1992, pp 838-845, Vol. 42.
pEC50: −log10 of the molar value.
Measured Parameter: pEC50

>>> result("O=c1cc(/C=C/c2cccc(F)c2)c2cc(C(c3ccc(Cl)cc3)c3ccsc3)ccc2[nH]1 (centres undefined)")
"< 5.30"
>>> result("O=c1cc(NC2CCN(S(=O)(=O)C(F)(F)F)CC2)c2cc(C(c3ccc(Cl)cc3)c3ccc(Cl)cc3)ccc2[nH]1")
7.28
>>> result("Clc1ccc(C(c2ccc3nccc(/C=C/c4ccccc4)c3c2)c2nccs2)cc1 (centres undefined)")
"< 5.30"

Alright, here's another molecule for you.
Which pEC50 reading was recorded for the molecule O=c1cc(/C=C/c2ccc(C(F)(F)F)cc2)c2cc(C(c3ccc(Cl)cc3)c3cccs3)ccc2[nH]1 (centres undefined) ?
< 5.30

###

Here the recorded pEC50 is given for each entry.
# Test System: Cannabinoid receptor 2 (Homo sapiens, UniProt P34972)
# Test Name: cAMP Assay: The following mixtures and buffer solutions were prepared: (a) Buffer 1: HBSS (Mediatech Cat#21-023-CV) with 5 mM HEPES (1 mM stock, Gibco BRL Cat#15630-056) and 0.1% BSA (7.5% stock, Invitrogen Cat#15260-037); (b) Buffer 2: 0.5 mM IBMX (200 mM stock in DMSO, Sigma 15879) in Buffer 1; (c) 1 uM cAMP Standard (50 uM stock, Perkin Elmer Cat# AD0262) diluted in Buffer 2 and serially diluted in Buffer 2, 12 doses at 1/2 dilutions resulting in a dose range of 1 uM to 0.5 nM; (d) d2 labelled cAMP (CisBio HTRF Detection Kit Cat #62AM4PEB reconstituted with 6 ml dH2O) diluted 1/20 with lysis buffer (CisBio HTRF Detection Kit Cat #62AM4PEB); (e) anti-cAMP (CisBio HTRF Detection Kit Cat #62AM4PEB reconstituted with 5 ml dH2O) diluted 1/20 with lysis buffer (CisBio HTRF Detection Kit Cat #62AM4PEB); and (f) Forskolin (Sigma Cat# F6886, 10 mM in DMSO) diluted first in DMSO to 1 mM and then to 1.5 uM in Buffer 2.
# Assay type: functional
pEC50: −log10 of the molar value.

Dear colleague, I am looking for the recorded pEC50 of the following molecule: "CC(C)(C)OC(=O)CN1CCC(Nc2cc(=O)[nH]c3ccc(C(c4ccc(Cl)cc4)c4ccc(Cl)cc4)cc23)CC1"
< 5.00

Try this molecule too: "N=C(N)N1CCC(Nc2cc(=O)[nH]c3ccc(C(c4ccc(Cl)cc4)c4ccc(Cl)cc4)cc23)CC1"
< 5.00

// next record "O=S(=O)(N1CCC(Nc2ccnc3c(NC4CCN(S(=O)(=O)C(F)(F)F)CC4)cc(C(c4ccc(Cl)cc4)c4ccc(Cl)cc4)cc23)CC1)C(F)(F)F"
< 4.85

Another molecule to look at: O=c1cc(/C=C/c2ccc(C(F)(F)F)cc2)c2cc(C(c3ccc(Cl)cc3)c3nccs3)ccc2[nH]1 (centres undefined)
< 5.00

###

# Test System: Cannabinoid receptor 1 (Homo sapiens)
# Test Name: Membranes were purchased from Perkin Elmer.
Each item that follows carries a reported EC50.
The reply should contain only the number, in nM.

>>> number("O=c1cc(/C=C/c2ccccc2)c2cc(C(c3ccc(Cl)cc3)c3nccs3)ccc2[nH]1 (configuration not stated)")
34.6

What does the record list as EC50 for Clc1ccc(C(c2ccc3nccc(/C=C/c4ccccc4)c3c2)c2cccs2)cc1 (configuration not stated) ?
97.3

Same again, this time with O=c1cc(/C=C/c2cccc(F)c2)c2cc(C(c3ccc(Cl)cc3)c3ccsc3)ccc2[nH]1 (configuration not stated)
22

Likewise for O=c1cc(CCc2cccc(Cl)c2)c2cc(C(c3ccc(Cl)cc3)c3nccs3)ccc2[nH]1 (configuration not stated) ?
332

Next: OC(c1ccc(Cl)cc1)(c1ccc2nccc(/C=C/c3ccccc3)c2c1)c1cccs1 (configuration not stated)
101

Could you do the same for O=c1cc(/C=C/c2ccc(C(F)(F)F)cc2)c2cc(C(c3ccc(Cl)cc3)c3cccs3)ccc2[nH]1 (configuration not stated) , please?
15.1

Same again, this time with Clc1ccc(C(c2ccc3nccc(/C=C/c4ccccc4)c3c2)c2nccs2)cc1 (configuration not stated)
55.1

###

# Test System: Cannabinoid receptor 1 (Homo sapiens)
# Test Name: cAMP Assay: The following mixtures and buffer solutions were prepared: (a) Buffer 1: HBSS (Mediatech Cat#21-023-CV) with 5 mM HEPES (1 mM stock, Gibco BRL Cat#15630-056) and 0.1% BSA (7.5% stock, Invitrogen Cat#15260-037); (b) Buffer 2: 0.5 mM IBMX (200 mM stock in DMSO, Sigma 15879) in Buffer 1; (c) 1 uM cAMP Standard (50 uM stock, Perkin Elmer Cat# AD0262) diluted in Buffer 2 and serially diluted in Buffer 2, 12 doses at 1/2 dilutions resulting in a dose range of 1 uM to 0.5 nM; (d) d2 labelled cAMP (CisBio HTRF Detection Kit Cat #62AM4PEB reconstituted with 6 ml dH2O) diluted 1/20 with lysis buffer (CisBio HTRF Detection Kit Cat #62AM4PEB); (e) anti-cAMP (CisBio HTRF Detection Kit Cat #62AM4PEB reconstituted with 5 ml dH2O) diluted 1/20 with lysis buffer (CisBio HTRF Detection Kit Cat #62AM4PEB); and (f) Forskolin (Sigma Cat# F6886, 10 mM in DMSO) diluted first in DMSO to 1 mM and then to 1.5 uM in Buffer 2.
# Format: functional
Measured Parameter: EC50
Please append the unit to your numeric answer.

>>> result("CCOC(=O)CCCOc1ccc(Nc2cc(=O)[nH]c3ccc(C(c4ccc(Cl)cc4)c4ccc(Cl)cc4)cc23)cc1")
"68 nM"
>>> result("CC(C)(C)OC(=O)CN1CCC(Nc2cc(=O)[nH]c3ccc(C(c4ccc(Cl)cc4)c4ccc(Cl)cc4)cc23)CC1")
"5 nM"

Shift focus to the following entry.
Consider the compound "O=c1cc(Nc2ccc(Cc3ccccc3)cc2)c2cc(C(c3ccc(Cl)cc3)c3ccc(Cl)cc3)ccc2[nH]1" and give its measured EC50.
15 nM

###

# Test System: Cannabinoid receptor 1 (Homo sapiens, UniProt P21554)
# Test Name: Membranes were purchased from Perkin Elmer.
Listed below: log10 of EC50 values for each entry.
All values: log10 EC50 [nM].

>>> number("O=c1cc(NC2CCN(S(=O)(=O)C(F)(F)F)CC2)c2cc(C(c3ccc(Cl)cc3)c3nccs3)ccc2[nH]1 (centres undefined)")
0.64
>>> number("OC(c1ccc(Cl)cc1)(c1ccsc1)c1ccc2nccc(/C=C/c3ccccc3)c2c1 (centres undefined)")
2.35
>>> number("OC(c1ccc(Cl)cc1)(c1ccc(Cl)cc1)c1ccc2nccc(/C=C/c3ccccc3)c2c1")
1.72

What value of measured log10 of EC50 is listed for "Clc1ccc(C(c2ccc(Cl)cc2)c2ccc3nccc(/C=C/c4ccccc4)c3c2)cc1" ?
0.61

Request: "O=c1cc(NC2CCN(S(=O)(=O)C(F)(F)F)CC2)c2cc(C(c3ccc(Cl)cc3)c3ccc(Cl)cc3)ccc2[nH]1"
0.08

Likewise for COc1ccc(C(O)(c2ccc3nccc(/C=C/c4ccccc4)c3c2)c2nccs2)cc1 (centres undefined) ?
3.27

Okay, and "O=c1cc(/C=C/c2ccccc2)c2cc(C(c3ccc(Cl)cc3)c3ccc(Cl)cc3)ccc2[nH]1" ?
1.55

meta.source: ChEMBL document CHEMBL3886543
